# Tested on: HT-29 cells
# METHOD_SUMMARY: HT-29 necroptosis cell viability assay (TNF-α/SMAC mimetic/zVAD-FMK, CellTiter-Glo)
# Assay type: cell-based
# TEST_CONTEXT: Homo sapiens, HT-29, HT-29 necroptosis cell viability, IC50 class symbols; read-out: Activity
pIC50: −log10 of the molar value.

- MOLECULE: "COC1(C#N)CN(c2cc(Oc3ccc(-n4ncn(Cc5c(F)cccc5F)c4=O)cc3F)c(Cl)cn2)C1"
  pIC50: "> 7.00"
- MOLECULE: "C[C@H]1[C@@H](NC(=O)OC(C)(C)C)CN1c1cc(Oc2ccc(-n3ncn(Cc4c(F)cccc4F)c3=O)cc2F)c(F)cn1"
  pIC50: "> 7.00"
- MOLECULE: "CC(C)(C)Oc1cc(Oc2ccc(-n3ncn(Cc4c(F)cccc4F)c3=O)cc2)ccn1"
  pIC50: "6.00 to 7.00"
- MOLECULE: "Cc1cnc(N2CC(C)(C#N)C2)cc1Oc1ccc(-n2ncn(Cc3c(F)cccc3F)c2=O)cc1Cl [Example 398]"
  pIC50: "> 7.00"
- MOLECULE: "O=c1n(-c2ccc(Oc3cccnc3)cc2)nc(Cl)n1Cc1ccccc1"
  pIC50: "> 7.00"
- MOLECULE: "CC(C)(N)C1CN(c2cc(Oc3ccc(-n4ncn(Cc5c(F)cccc5F)c4=O)cc3F)c(F)cn2)C1"
  pIC50: "6.00 to 7.00"
- MOLECULE: "O=c1n(Cc2c(F)cccc2F)cnn1-c1ccc(Oc2c(N3CC4(CCOCC4)C3)ccnc2Cl)cc1"
  pIC50: "6.00 to 7.00"
- MOLECULE: "NC1(CO)CN(c2cc(Oc3ccc(-n4ncn(Cc5c(F)cccc5F)c4=O)cc3F)c(F)cn2)C1"
  pIC50: "6.00 to 7.00"
- MOLECULE: "CC(C)(O)C1CCN1c1cc(Oc2ccc(-n3ncn(Cc4c(F)cccc4F)c3=O)cc2F)c(F)cn1 (stereo not drawn)"
  pIC50: "> 7.00"
- MOLECULE: "O=c1n(Cc2c(F)cccc2F)cnn1-c1ccc(S(=O)(=O)c2ccnc(N3CCC3)c2)cc1"
  pIC50: "> 7.00"
- MOLECULE: "COC1(C#N)CN(c2nccc(Oc3ccc(-n4ncn(Cc5c(F)cccc5F)c4=O)cc3)c2F)C1"
  pIC50: "> 7.00"
- MOLECULE: "N#CC1CCN(c2cc(Oc3ccc(-n4ncn(Cc5c(F)cccc5F)c4=O)cc3)ccn2)C1 (stereo not drawn)"
  pIC50: "> 7.00"
- MOLECULE: "CC1(C#N)CN(c2nccc(Oc3ccc(-n4ncn(Cc5c(F)cccc5F)c4=O)cc3F)c2F)C1"
  pIC50: "> 7.00"
- MOLECULE: "N#Cc1cc(Oc2ccc(-n3ncn(Cc4c(F)cccc4F)c3=O)cc2F)c(F)cn1"
  pIC50: "> 7.00"
- MOLECULE: "O=c1n(Cc2c(F)cccc2F)cnn1-c1ccc(Oc2ccnc(N3CC4(CCN4)C3)c2)cc1"
  pIC50: "> 7.00"

----------
# Tested on: HT-29 cells
# METHOD_SUMMARY: HT-29 necroptosis cell viability assay (TNF-α/SMAC mimetic/zVAD-FMK, CellTiter-Glo)
# Type: cell-based
# TEST_CONTEXT: Homo sapiens, HT-29, HT-29 necroptosis cell viability, IC50 class symbols; read-out: Activity
READOUT_LABEL: IC50

- MOLECULE: "Cc1cnc(N2CC3(CCOCC3)C2)cc1Oc1ccc(-n2ncn(Cc3c(F)cccc3F)c2=O)cc1 [Example 263]"
  TEST_TARGET: "HT-29 cells"
  READOUT_LABEL: "IC50"
  EXPERIMENTAL_VALUE: "< 100 nM"
- MOLECULE: "COC1(C#N)CN(c2cc(Oc3ccc(-n4ncn(Cc5c(F)cccc5F)c4=O)cc3)c(Cl)cn2)C1 [Example 319]"
  TEST_TARGET: "HT-29 cells"
  READOUT_LABEL: "IC50"
  EXPERIMENTAL_VALUE: "< 100 nM"
- MOLECULE: "N#Cc1cnc(Cl)cc1Oc1ccc(-n2ncn(Cc3c(F)cccc3F)c2=O)cc1F [Example 395]"
  TEST_TARGET: "HT-29 cells"
  READOUT_LABEL: "IC50"
  EXPERIMENTAL_VALUE: "1000 to 10000 nM"
- MOLECULE: "O=c1n(Cc2c(F)cccc2F)cnn1-c1ccc(Oc2ccnc(N3CC(OC(F)F)C3)c2)cc1 [Example 287]"
  TEST_TARGET: "HT-29 cells"
  READOUT_LABEL: "IC50"
  EXPERIMENTAL_VALUE: "< 100 nM"
- MOLECULE: "Nc1c(Oc2ccc(-n3ncn(Cc4c(F)cccc4F)c3=O)cc2)ccnc1N1CC2(CCOCC2)C1 [Example 410]"
  TEST_TARGET: "HT-29 cells"
  READOUT_LABEL: "IC50"
  EXPERIMENTAL_VALUE: "100 to 1000 nM"
- MOLECULE: "O=c1n(Cc2c(F)cccc2F)cnn1-c1ccc(Oc2ccnc(NC3COC3)c2)cc1 [Example 343]"
  TEST_TARGET: "HT-29 cells"
  READOUT_LABEL: "IC50"
  EXPERIMENTAL_VALUE: "1000 to 10000 nM"
- MOLECULE: "CN(c1cc(Oc2ccc(-n3ncn(Cc4c(F)cccc4F)c3=O)cc2)ccn1)C1CC(F)(F)C1 [Example 478]"
  TEST_TARGET: "HT-29 cells"
  READOUT_LABEL: "IC50"
  EXPERIMENTAL_VALUE: "100 to 1000 nM"
- MOLECULE: "O=c1n(Cc2c(F)cccc2F)cnn1-c1ccc(Oc2ccnc(N3CC4(CCCCO4)C3)c2)cc1 [Example 334]"
  TEST_TARGET: "HT-29 cells"
  READOUT_LABEL: "IC50"
  EXPERIMENTAL_VALUE: "< 100 nM"
- MOLECULE: "Cc1nc(C(C)(C)O)sc1Oc1ncc(-n2ncn(Cc3c(F)cccc3F)c2=O)cc1F [Example 465]"
  TEST_TARGET: "HT-29 cells"
  READOUT_LABEL: "IC50"
  EXPERIMENTAL_VALUE: "< 100 nM"
- MOLECULE: "CC1(CO)CCN(c2cc(Oc3ccc(-n4ncn(Cc5c(F)cccc5F)c4=O)cc3)ccn2)C1 (stereo not shown) [Example 265]"
  TEST_TARGET: "HT-29 cells"
  READOUT_LABEL: "IC50"
  EXPERIMENTAL_VALUE: "100 to 1000 nM"
- MOLECULE: "N#CC12CC(Nc3nccc(Oc4ccc(-n5ncn(Cc6c(F)cccc6F)c5=O)cc4F)c3F)(C1)C2 [Example 246]"
  TEST_TARGET: "HT-29 cells"
  READOUT_LABEL: "IC50"
  EXPERIMENTAL_VALUE: "< 100 nM"
- MOLECULE: "CC1(O)CN(c2cc(Oc3ncc(-n4ncn(Cc5c(F)cccc5F)c4=O)cc3F)ccn2)C1 [Example 249]"
  TEST_TARGET: "HT-29 cells"
  READOUT_LABEL: "IC50"
  EXPERIMENTAL_VALUE: "100 to 1000 nM"
- MOLECULE: "N#CC1(F)CN(c2cc(Oc3ccc(-n4ncn(Cc5c(F)cccc5F)c4=O)cc3)ccn2)C1 [Example 252]"
  TEST_TARGET: "HT-29 cells"
  READOUT_LABEL: "IC50"
  EXPERIMENTAL_VALUE: "100 to 1000 nM"
- MOLECULE: "Nc1cc(Oc2ccc(-n3ncn(Cc4c(F)cccc4F)c3=O)cc2)ccn1 [Example 310]"
  TEST_TARGET: "HT-29 cells"
  READOUT_LABEL: "IC50"
  EXPERIMENTAL_VALUE: "100 to 1000 nM"
- MOLECULE: "CN(CC1CCCCO1)c1cc(Oc2ccc(-n3ncn(Cc4c(F)cccc4F)c3=O)cc2)ccn1 (stereo not shown) [Example 408]"
  TEST_TARGET: "HT-29 cells"
  READOUT_LABEL: "IC50"
  EXPERIMENTAL_VALUE: "< 100 nM"
- MOLECULE: "COC1(C#N)CN(c2cc(Oc3ccc(-n4ncn(Cc5c(F)cccc5F)c4=O)cc3)c(F)cn2)C1 [Example 302]"
  TEST_TARGET: "HT-29 cells"
  READOUT_LABEL: "IC50"
  EXPERIMENTAL_VALUE: "< 100 nM"
